- system: Gastrin/cholecystokinin type B receptor (Homo sapiens, UniProt P32239)
- Sequence (P32239 whole entry): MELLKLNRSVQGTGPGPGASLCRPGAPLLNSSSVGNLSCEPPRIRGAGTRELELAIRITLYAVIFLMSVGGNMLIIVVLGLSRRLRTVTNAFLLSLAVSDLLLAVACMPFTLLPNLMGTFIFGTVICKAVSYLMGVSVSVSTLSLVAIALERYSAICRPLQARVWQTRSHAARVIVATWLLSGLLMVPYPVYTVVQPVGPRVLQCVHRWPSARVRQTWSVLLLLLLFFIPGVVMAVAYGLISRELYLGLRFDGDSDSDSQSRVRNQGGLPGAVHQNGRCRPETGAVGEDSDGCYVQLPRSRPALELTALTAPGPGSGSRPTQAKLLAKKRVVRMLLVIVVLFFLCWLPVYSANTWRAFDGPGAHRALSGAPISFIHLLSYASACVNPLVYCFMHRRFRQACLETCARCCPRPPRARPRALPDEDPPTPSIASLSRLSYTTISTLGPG
- assay comment: Inhibition of CCK binding to Cos-7 cells expressing human cholecystokinin 2 receptor
pIC50: −log10 of the molar value.
Form field: pIC50 (one value per entry).
recorded endpoint: pIC50

1. CC(C)(C)OC(=O)N[C@@H](Cc1c[nH]c2ccccc12)C(=O)N[C@@H]1CCCN2C(=O)N(c3ccccc3)C(=O)C[C@@H]12
< 5.00
2. CC(C)(C)OC(=O)N[C@@H](Cc1c[nH]c2ccccc12)C(=O)N[C@H]1CCCN2C(=O)N(Cc3ccccc3)C(=O)C[C@@H]12
5.22
3. CC(C)(C)OC(=O)N[C@@H](Cc1c[nH]c2ccccc12)C(=O)N[C@@H]1CCCN2C(S)N(Cc3ccccc3)C(=O)C[C@@H]12 (some centres undefined)
< 5.00
4. CC(C)(C)OC(=O)N[C@@H](Cc1c[nH]c2ccccc12)C(=O)N[C@@H]1CCCN2C(=O)N(c3cccc4ccccc34)C(=O)C[C@@H]12
< 5.00

Where do these numbers come from? They come from ChEMBL document CHEMBL1144401.
